The reported measurements were obtained from patent US20260125421A1.

Lab note: pIC50 readings collected with SARS-CoV-2 3CL^pro (Severe acute respiratory syndrome coronavirus 2) for the following compounds.
Note: pIC50 values are expressed as the negative base-10 logarithm of concentration in M.

Write down the reported pIC50 of "CC1(C)C[C@@H](CN(NC(=O)[C@@H]2[C@@H]3[C@H](CN2C(=O)[C@@H](NC(=O)[C@H](F)Cl)C(C)(C)C)C3(C)C)C(=O)[C@H](F)Cl)C(=O)N1" , test system: SARS-CoV-2 3CL^pro (Severe acute respiratory syndrome coronavirus 2).
7.62

Write down the reported pIC50 of "CC1(C)C[C@@H](CN(NC(=O)[C@@H]2[C@@H]3[C@H](CN2C(=O)[C@@H](NC(=O)[C@@H]2CC2(F)F)C(C)(C)C)C3(C)C)C(=O)[C@@H](F)Cl)C(=O)N1" , test system: SARS-CoV-2 3CL^pro (Severe acute respiratory syndrome coronavirus 2).
7.27

Write down the reported pIC50 of "C[C@@H]1C[C@@H](CN(NC(=O)[C@@H]2[C@@H]3[C@H](CN2C(=O)[C@@H](NC(=O)[C@@H]2CC2(F)F)C(C)(C)C)C3(C)C)C(=O)[C@@H](F)Cl)C(=O)N1" , test system: SARS-CoV-2 3CL^pro (Severe acute respiratory syndrome coronavirus 2).
8.10

Write down the reported pIC50 of "CCC(CC)[C@H](NC(=O)[C@H](F)Cl)C(=O)N1C[C@@H]2CCC[C@@H]2[C@H]1C(=O)NN(C[C@@H]1CC(C)(C)NC1=O)C(=O)[C@H](F)Cl" , test system: SARS-CoV-2 3CL^pro (Severe acute respiratory syndrome coronavirus 2).
8.15

Write down the reported pIC50 of "C[C@H]1C[C@H](CN(NC(=O)[C@@H]2[C@H]3CCC[C@H]3CN2C(=O)[C@@H](NC(=O)[C@@H]2CC2(F)F)C(C)(C)C)C(=O)[C@H](F)Cl)C(=O)N1" , test system: SARS-CoV-2 3CL^pro (Severe acute respiratory syndrome coronavirus 2).
7.52

Write down the reported pIC50 of "CC1(C)C[C@@H](CN(NC(=O)[C@@H]2[C@H]3CCC[C@H]3CN2C(=O)[C@@H](NC(=O)C(F)F)C(C)(C)C)C(=O)[C@@H](F)Cl)C(=O)N1" , test system: SARS-CoV-2 3CL^pro (Severe acute respiratory syndrome coronavirus 2).
7.52

Write down the reported pIC50 of "CC(C)(C)[C@H](NC(=O)[C@@H]1CC1(F)F)C(=O)N1C[C@@H]2CCC[C@@H]2[C@H]1C(=O)NN(C[C@H]1C(=O)N[C@@H]2C[C@@H]21)C(=O)[C@@H](F)Cl" , test system: SARS-CoV-2 3CL^pro (Severe acute respiratory syndrome coronavirus 2).
7.77

Write down the reported pIC50 of "CC1(C)C[C@@H](CN(NC(=O)[C@@H]2[C@H]3CCC[C@H]3CN2C(=O)[C@@H](NC(=O)[C@@H](F)Cl)C(C)(C)C)C(=O)[C@H](F)Cl)C(=O)N1" , test system: SARS-CoV-2 3CL^pro (Severe acute respiratory syndrome coronavirus 2).
7.96

Write down the reported pIC50 of "CC1(C)C[C@@H](CN(NC(=O)[C@@H]2[C@H]3CCC[C@H]3CN2C(=O)[C@@H](NC(=O)C(F)F)C(C)(C)C)C(=O)[C@H](F)Cl)C(=O)N1" , test system: SARS-CoV-2 3CL^pro (Severe acute respiratory syndrome coronavirus 2).
8.05

Write down the reported pIC50 of "C[C@@H]1C[C@H](CN(NC(=O)[C@@H]2[C@H]3CCC[C@H]3CN2C(=O)[C@@H](NC(=O)[C@@H]2CC2(F)F)C(C)(C)C)C(=O)[C@@H](F)Cl)C(=O)N1" , test system: SARS-CoV-2 3CL^pro (Severe acute respiratory syndrome coronavirus 2).
7.44

Write down the reported pIC50 of "CC1(C)C[C@@H](CN(NC(=O)[C@@H]2[C@H]3CCC[C@H]3CN2C(=O)[C@@H](NC(=O)[C@@H](F)Cl)C(C)(C)C)C(=O)[C@@H](F)Cl)C(=O)N1" , test system: SARS-CoV-2 3CL^pro (Severe acute respiratory syndrome coronavirus 2).
7.80

Write down the reported pIC50 of CC1(C)CC(CN(NC(=O)[C@@H]2[C@H]3CCC[C@H]3CN2C(=O)[C@@H](NC(=O)[C@@H]2CC2(F)F)C(C)(C)C)C(=O)[C@H](F)Cl)C(=O)N1 (mixture of isomers) , test system: SARS-CoV-2 3CL^pro (Severe acute respiratory syndrome coronavirus 2).
7.64

Write down the reported pIC50 of "CC1(C)C[C@@H](CN(NC(=O)[C@@H]2[C@H]3CCC[C@H]3CN2C(=O)[C@@H](NC(=O)[C@@H]2CC2(F)F)C(C)(C)C)C(=O)[C@H](F)Cl)C(=O)N1" , test system: SARS-CoV-2 3CL^pro (Severe acute respiratory syndrome coronavirus 2).
7.96

Write down the reported pIC50 of "CC1(C)C[C@H](CN(NC(=O)[C@@H]2[C@H]3CCC[C@H]3CN2C(=O)[C@@H](NC(=O)[C@@H]2CC2(F)F)C(C)(C)C)C(=O)[C@@H](F)Cl)C(=O)N1" , test system: SARS-CoV-2 3CL^pro (Severe acute respiratory syndrome coronavirus 2).
6.04

Write down the reported pIC50 of "CC(C)(C)[C@H](NC(=O)[C@@H]1CC1(F)F)C(=O)N1C[C@@H]2CCC[C@@H]2[C@H]1C(=O)NN(C[C@@H]1C(=O)N[C@@H]2C[C@H]12)C(=O)[C@H](F)Cl" , test system: SARS-CoV-2 3CL^pro (Severe acute respiratory syndrome coronavirus 2).
7.57
